For each record, write down the corresponding Population Fragmented Nuclei (%).
system: HEK-293T; assay: Multiplex assay against HEK293T; format: toxicity, cell-based; details: human, 48 h, 10 µM, compound concentration 10 uM, replicate 1
Numbers only, in %.

For each of the molecules below, note its Population Fragmented Nuclei (%).
1. Cc1cc(C)cc(-c2cnc3cc(Cl)c(-c4cccc(O)c4)cc3c2OCCCN)c1
2. Cc1nc(-c2ccc(-c3ccc(C(=O)N4CCc5cc6c(cc54)C4(CCN(C)CC4)CO6)cc3)c(C)c2)no1 [SB-224289]

stdout:
1. 27
2. 13

# map each molecule to its Population Fragmented Nuclei (%)
1. C[C@@H](NCCCc1cccc(C(F)(F)F)c1)c1cccc2ccccc12.Cl [CINACALCET HYDROCHLORIDE]
2. NC(=O)Nc1cc(-c2cccc(F)c2)sc1C(=O)N[C@H]1CCCNC1 [AZD-7762]
3. CC(C)(O)CNc1ncc(-c2ccnc(Nc3ccnc(Cl)c3)n2)c(CC2CC2)n1

stdout:
1: 24; 2: 43; 3: 22

----------
What Population Membrane Permeable-Phenotype (%) was measured for each of the following?
system: Fibroblast; assay: Multiplex assay against human fibroblast; assay type: toxicity, cell-based; settings: 24 h, 1 µM, compound concentration 1 uM, replicate 1
One number for each entry, in %.

# example entries with known answers
[[record]]
compound = "CNc1nc(NCc2ccc(NS(C)(=O)=O)cc2Cl)cc(-c2ccccn2)n1"
val = 23

[[record]]
compound = "Cc1c(-c2ccc(O)cc2)n(Cc2ccc(OCCN3CCCCCC3)cc2)c2ccc(O)cc12 [BAZEDOXIFENE]"
val = 22

[[record]]
compound = "Cn1cc(-c2[nH]c3cc(NC(=O)[C@H](N)C4CCCCC4)cc4c3c2C=NNC4=O)cn1"
val = 20

[[record]]
compound = "CC(C)NCC(O)COc1ccc(CCOCC2CC2)cc1.Cl (stereo not drawn) [BETAXOLOL HYDROCHLORIDE]"
val = 30

[[record]]
compound = "Cl.N#Cc1ccc2[nH]cc(CCCCN3CCN(c4ccc5oc(C(N)=O)cc5c4)CC3)c2c1 [VILAZODONE HYDROCHLORIDE]"
val = 21


List reported Population Membrane Permeable-Phenotype (%) for each of these compounds:
1. C[C@@H](NCCCc1cccc(C(F)(F)F)c1)c1cccc2ccccc12.Cl [CINACALCET HYDROCHLORIDE]
2. OC1(c2ccc(Cl)cc2)CCN(Cc2c[nH]c3ccccc23)CC1
3. CN(C)CC#Cc1ccc(OCCCc2sc(N3CCc4cccc(C(=O)Nc5nc6ccccc6s5)c4C3)nc2C(=O)O)c(F)c1 [A-1155463]

stdout:
[16, 25, 37]

----------
test system: HEK-293T; experiment: Multiplex assay against HEK293T; assay type: toxicity, cell-based; conditions: human, 12 h, 1 µM, compound concentration 1 uM, replicate 1
Readout name: Population Mitochondria Different-Phenotype (%)
One number for each entry, in %.

Record excerpt, results attached:
[[record]]
compound = "Cc1nc(-c2cn3c(n2)-c2ccc(-c4cnn(C(C)(C)C(N)=O)c4)cc2OCC3)n(C(C)C)n1 [TASELISIB]"
measurement_target = "HEK-293T"
val = 12

[[record]]
compound = "Cc1nc(Nc2n[nH]c3c2CN(C(=O)N[C@H](CN(C)C)c2ccccc2)C3(C)C)c2sccc2n1 [PF-03758309]"
measurement_target = "HEK-293T"
val = 5

[[record]]
compound = "CN1CCN(CCOc2cc(OC3CCOCC3)c3c(Nc4c(Cl)ccc5c4OCO5)ncnc3c2)CC1 [SARACATINIB]"
measurement_target = "HEK-293T"
val = 89


Next up:
Lookup result for CN(C)C(=O)N[C@H]1CC[C@H](CCN2CCN(c3cccc(Cl)c3Cl)CC2)CC1.Cl [CARIPRAZINE HYDROCHLORIDE] ; measured Population Mitochondria Different-Phenotype (%): 88
